Data credit: the supplement of paper PMC11865577

# Tested on: TO-N3 (biotin conjugate)
# assay info: pull-down binding Z-score (relative to library population); higher = stronger binding
# condition info: RNA library: Library-2
Could you please classify the records by pull-down binding Z-score using these ranges: bottom = under -0.6, middle = from -0.6 up to 0.3, top = 0.3 and over

- sequence code: "AAAAACACCCAAGAAGUUUUU"
  measurement target: "TO-N3 (biotin conjugate)"
  class name: "bottom"
- sequence code: "CAGACUCUG [hsa-mir-4326]"
  measurement target: "TO-N3 (biotin conjugate)"
  class name: "middle"
- sequence code: "GGGGGUGGCCGGGGCUGACCCU [hsa-mir-939]"
  measurement target: "TO-N3 (biotin conjugate)"
  class name: "top"
- sequence code: "UAGUGCUAUGCAGACAAUGCUUUUCACUA"
  measurement target: "TO-N3 (biotin conjugate)"
  class name: "bottom"
- sequence code: "CUCGUCUAUCUUCUGCAGGCUGCUUACGGUUUCGUCCGUGUUGCAGCCGAUCAUCAGCACAUCUAGGUUUUGUCCGGGUGUGACCGAAAGGUAAGAUGGAGAG"
  measurement target: "TO-N3 (biotin conjugate)"
  class name: "bottom"
- sequence code: "GAAGAUUCUGAAAAUCACUAACU [hsa-mir-6878]"
  measurement target: "TO-N3 (biotin conjugate)"
  class name: "middle"
- sequence code: "CCUGCAGGUGAGAGCGGGAACACCUGCAU [hsa-mir-7112]"
  measurement target: "TO-N3 (biotin conjugate)"
  class name: "top"
- sequence code: "UCUUUCAUGGGA [DMSMaPseq_invitro_SARS-CoV-2_Motif_300]"
  measurement target: "TO-N3 (biotin conjugate)"
  class name: "top"
- sequence code: "CCCACGUCGCAUGCGCCCCGGGAAAGCGUGGG [hsa-mir-3180-1_3180-3_3180-2]"
  measurement target: "TO-N3 (biotin conjugate)"
  class name: "top"
- sequence code: "UCUUCCCGGAGUCGGGAAAA [hsa-mir-320a]"
  measurement target: "TO-N3 (biotin conjugate)"
  class name: "middle"
- sequence code: "GGGUGAGAGUGCUUUCUGAAUGCAGUGCACCC [hsa-mir-500b]"
  measurement target: "TO-N3 (biotin conjugate)"
  class name: "top"
- sequence code: "AACAGGACCUGUGCUCACUGGGGCCUGCA [hsa-mir-6797]"
  measurement target: "TO-N3 (biotin conjugate)"
  class name: "top"
- sequence code: "GAUCCUUUGUUCUGGAUC [hsa-mir-7856]"
  measurement target: "TO-N3 (biotin conjugate)"
  class name: "middle"
- sequence code: "CCCUUGUCUUCCCAGAG [hsa-mir-4739]"
  measurement target: "TO-N3 (biotin conjugate)"
  class name: "middle"
- sequence code: "AUGUGAUGUGAGCAGAUGGUUCUCACU [hsa-mir-6758]"
  measurement target: "TO-N3 (biotin conjugate)"
  class name: "bottom"
- sequence code: "UGAACCACAAAUCA [SHAPE_invitro_SARS-CoV-2_Motif_451]"
  measurement target: "TO-N3 (biotin conjugate)"
  class name: "bottom"
- sequence code: "UCUAUCUGUAUUCUUACUGAAGGGA [hsa-mir-504]"
  measurement target: "TO-N3 (biotin conjugate)"
  class name: "bottom"
- sequence code: "CCUUCUACCAAGUUAAGCAUACUCAUUAGAAGG [hsa-mir-3914-2]"
  measurement target: "TO-N3 (biotin conjugate)"
  class name: "top"
- sequence code: "GUUUGGCAGGACAGUUUCCAAGC [hsa-mir-6779]"
  measurement target: "TO-N3 (biotin conjugate)"
  class name: "middle"
- sequence code: "UGGGGUUGGGGUUGGGGUUGGGGUUGGGGUUGGGGU [G4_r(UGGGGU)6]"
  measurement target: "TO-N3 (biotin conjugate)"
  class name: "top"
- sequence code: "AUUGUACUGUGGUGGUUACAAU [hsa-mir-34b]"
  measurement target: "TO-N3 (biotin conjugate)"
  class name: "bottom"
- sequence code: "AAGAAGCUGCGCUGUGCACCUUUUU [DMSMaPseq_invitro_SARS-CoV-2_Motif_178]"
  measurement target: "TO-N3 (biotin conjugate)"
  class name: "middle"

* * *

# Tested on: TO-N3 (biotin conjugate)
# assay info: pull-down binding Z-score (relative to library population); higher = stronger binding
# condition info: RNA library: Library-2

- sequence code: "GCUGGAGUAAGGGCACGCCCGGGGCUGC [hsa-mir-4758]"
  pull-down binding Z-score: 1.51
- sequence code: "CCUCCCUAGGGGAUCCCAGGUAGG [hsa-mir-4688]"
  pull-down binding Z-score: 0.0963
- sequence code: "CACGUCCAACUCAGUUUGCCUGUUUUACAGGUUCGCGACGUG"
  pull-down binding Z-score: 0.0672
- sequence code: "GGUUCCCACGCCGCGGCAACC [hsa-mir-6776]"
  pull-down binding Z-score: 0.217
- sequence code: "AAGGUACAGCAGAUACUUACCUG [U1snRNP5ss-22]"
  pull-down binding Z-score: -0.213
- sequence code: "GGGAUAUUUGCAUUAUACUUAUCC [hsa-mir-5009]"
  pull-down binding Z-score: -0.0499
- sequence code: "GAGUUUUUAGUGCAGUUGGUAACAUCUGUUACACACCAUCAAAACUU"
  pull-down binding Z-score: 0.0323
- sequence code: "UUCUCUUUAUUUAUGAUGAA [hsa-mir-494]"
  pull-down binding Z-score: -1.56
- sequence code: "CCCACUCCAAAGUUCACAGAAUGGGUGG [hsa-mir-541]"
  pull-down binding Z-score: 1.8
- sequence code: "UUUGGCUGCCAAAAGAAAUGGCCAAA [hsa-mir-548at]"
  pull-down binding Z-score: -0.547
- sequence code: "CUUUUGUUCAAAUAAAAAUGCAAAAG [hsa-mir-651]"
  pull-down binding Z-score: -1.06
- sequence code: "UGUAUAUAGCAUAUGUGUAUACAUACACACACACACACACACACACACA [hsa-mir-8485]"
  pull-down binding Z-score: 0.167
- sequence code: "GUGAGGUAUUUUAGUAACAUCAC [hsa-mir-125b-2]"
  pull-down binding Z-score: -0.969
- sequence code: "CAUGCAUGUGUCUAGAAAUAUGUUUU [hsa-mir-507]"
  pull-down binding Z-score: 0.0527
- sequence code: "UUUUGCUGUUACUUUUAAUGGCAAAA [hsa-mir-548az]"
  pull-down binding Z-score: -0.752
- sequence code: "GUGGGGUAUUCAUCACCCGC [IAV_invivo_HA_4_Motif_9+IAV_invivo_HA_4_Motif_9]"
  pull-down binding Z-score: 1.62
- sequence code: "GGUUCUUCCCGAAGC [hsa-mir-4710]"
  pull-down binding Z-score: 0.0409
- sequence code: "GGUGACAACAACC [IAV_invivo_M1_M2_7_Motif_11+IAV_invivo_M1_M2_7_Motif_11]"
  pull-down binding Z-score: -0.366
- sequence code: "UGGGUAGAAAGUAUUAUUCUAUUCA [hsa-mir-664b]"
  pull-down binding Z-score: -0.28
- sequence code: "UCAGGUGAAUGUGUCUGG [hsa-mir-3916]"
  pull-down binding Z-score: -0.773
- sequence code: "UAUUGUGUUGAUCAACAAUA [hsa-mir-5590]"
  pull-down binding Z-score: -0.668
- sequence code: "GCUAGUGCUGGCUCAAUGCAAUGC [hsa-mir-502]"
  pull-down binding Z-score: -0.0527
- sequence code: "CCUUCUGUAUACAUGUAUACAGGAGGAAGG [hsa-mir-4716]"
  pull-down binding Z-score: 0.495

* * *

# Test system: G-clamp-N3 (biotin conjugate)
# assay info: pull-down binding Z-score (relative to library population); higher = stronger binding
# condition info: RNA library: Library-1 (pre-miRNA loops + repeats)
Could you please classify the records by pull-down binding Z-score using these ranges: low-valued = under -0.6, mid-valued = from -0.6 up to 0.8, high-valued = 0.8 and over

- sequence code: "GACAGGGCAGAGGGUUGCGCCCCCUC [hsa-mir-6511b-1_6511b-2_6511a-2_6511a-3_6511a-1_6511a-4]"
  class name: "high-valued"
- sequence code: "AAAAUUCAUGGCCUACAGCUGCCUCUUGCCAAACUGCACUGGAUUUU [hsa-mir-5010]"
  class name: "low-valued"
- sequence code: "ACGUCUGGCCGCGUGCGCAUGU [hsa-mir-3175]"
  class name: "high-valued"
- sequence code: "UGGGCAGUUCUUCUGCUGG [hsa-mir-1587]"
  class name: "mid-valued"
- sequence code: "AAGUAAUUGUUUCUAAUGUACU [hsa-mir-412]"
  class name: "high-valued"
- sequence code: "UAGGUGGUCGAAGUCAUCCACA [hsa-mir-7153]"
  class name: "low-valued"
- sequence code: "UGUGCCCCGUACCGGACAGG [hsa-mir-7160]"
  class name: "low-valued"
- sequence code: "GUGGAAUGCAAAGUCCCAC [hsa-mir-5698]"
  class name: "mid-valued"
- sequence code: "GGUUGUUAGAUAGACAACU [hsa-mir-4510]"
  class name: "mid-valued"
